Test system: Pseudomonas aeruginosa ATCC 27853
Test: MIC, NCCLS M7-A6 broth microdilution (Table 9, no superscript)
Assay type: cell-based
Settings: ATCC 27853
Procedure: Cation-adjusted Mueller Hinton broth was used in the broth microdilution method. In brief, a log-phase bacterial suspension was used to inoculate wells of a 96-well plate so that the final inoculum for each well contained 5×10^5 to 1×10^6 CFU/milliliter. […] Plates were incubated overnight at 37° C. The lowest concentration of peptide that contained no visible growth as evidenced by a lack of turbidity when compared to the control (no peptide) was determined as the MIC. […]
Residues, ends and D or L forms follow the SMILES beside them. *: point of attachment. Lauroyl = CCCCCCCCCCCC(=O)*
For each entry below, report its MIC P. aeruginosa value.
Answers are plain numbers, in µg/mL.

Would you please look over these solved cases?
CCCCCCCCCCCC(=O)N[C@@H](CCCNC(=N)N)C(=O)N[C@@H](CO)C(=O)N[C@@H](CCCNC(=N)N)C(=O)N[C@@H](Cc1c[nH]c2ccccc12)C(=O)N[C@@H](CCCNC(=N)N)C(=O)N[C@@H](CC(=O)O)C(=O)N[C@H](C(=O)N[C@@H](CC(C)C)C(=O)N[C@@H](CCCNC(=N)N)C(=O)N[C@@H](CC(N)=O)C(=O)N[C@@H](Cc1ccccc1)C(=O)N[C@@H](CCSC)C(=O)N[C@@H](CCCNC(=N)N)C(N)=O)C(C)C [Peptide 134, Lauryl-RSRWRDVLRNFMR-NH2] (Lauroyl-RSRWRDVLRNFMR-NH2)    32
CCCCCCCCCCCC(=O)N[C@@H](CCCNC(=N)N)C(=O)N[C@@H](Cc1c[nH]c2ccccc12)C(=O)N[C@@H](CCCNC(=N)N)C(=O)N[C@@H](CC(=O)O)C(=O)N[C@@H](CC(C)C)C(=O)N[C@@H](C)C(=O)N[C@@H](CCCNC(=N)N)C(N)=O [Peptide 241, Lauryl-RWRDLAR-NH2] (Lauroyl-RWRDLAR-NH2)    32

Proceed to the following item.
**Query** Find the recorded MIC P. aeruginosa belonging to CCCCCCCCCCCC(=O)N[C@@H](CCCNC(=N)N)C(=O)N[C@@H](CO)C(=O)N[C@@H](CCCNC(=N)N)C(=O)N[C@@H](Cc1c[nH]c2ccccc12)C(=O)N[C@@H](CCCNC(=N)N)C(=O)N[C@@H](CC(=O)O)C(=O)N[C@H](C(=O)N[C@@H](C)C(=O)N[C@@H](CCCNC(=N)N)C(=O)N[C@@H](CC(N)=O)C(=O)N[C@@H](Cc1c[nH]c2ccccc12)C(=O)N[C@@H](CCSC)C(=O)N[C@@H](CCCNC(=N)N)C(N)=O)C(C)C [Peptide 139, Lauryl-RSRWRDVARNWMR-NH2] (Lauroyl-RSRWRDVARNWMR-NH2) and report it.
**Result** 8
